Measured EC50 accompanies every entry in the list below.
Test system: HCV genotype 1b replicon with NS5A Y93H mutation
Experiment Description: Transiently transfected assay of genotype 1b resistance mutant RNA Y93H
Format: cell-based
Condition Description: Hepatitis C virus, Huh-7.5.1, 72 h, read-out: HCV Mutation Y93H
From the text: <Experimental Example 3> Transiently Transfected Assay of Genotype 1b Resistance Mutant RNAs Replicon genomes substituted with Y93H, L31V and L31V+Y93H (double mutant), the resistance mutants to Daclatasvir with mutations at the NS5A protein domain 1. These HCV resistance mutant genomes were linearized with scal restriction enzyme, and then the mutated HCV RNA was synthesized through in vitro transcription. […]
Measurement Type: EC50

>>> result("CCCCC1(CCCC)c2cc(NC(=O)[C@@H]3CCCN3C(=O)[C@H](NC(=O)OC)c3ccccc3)ccc2-c2ccc(NC(=O)[C@@H]3C[C@H](COC)CN3C(=O)[C@H](NC(=O)OC)c3ccccc3)cc21")
"0.01 to 0.1 nM"
>>> result("CCCCC1(CCCC)c2cc(NC(=O)[C@@H]3CC(F)(F)CN3C(=O)[C@H](NC(=O)OC)c3ccccc3)ccc2-c2ccc(NC(=O)[C@@H]3C[C@@H]4CCC[C@@H]4N3C(=O)[C@H](NC(=O)OC)c3ccccc3)cc21")
"1 to 100 nM"
>>> result("CCCCCC1(CCCCC)c2cc(NC(=O)[C@@H]3CC4(CN3C(=O)[C@H](NC(=O)OC)c3ccccc3)OCCO4)ccc2-c2ccc(NC(=O)[C@@H]3CC4(CN3C(=O)[C@H](NC(=O)OC)c3ccccc3)OCCO4)cc21")
"0.001 to 0.01 nM"
>>> result("CCCCC1(CCCC)c2cc(NC(=O)[C@@H]3C[C@H]4CCC[C@H]4N3C(=O)[C@H](NC(=O)OC)c3ccccc3)ccc2-c2ccc(NC(=O)[C@@H]3C[C@H]4CCC[C@H]4N3C(=O)[C@H](NC(=O)OC)c3ccccc3)cc21")
"0.01 to 0.1 nM"
>>> result("CCC1(CC)c2cc(NC(=O)[C@@H]3CCCN3C(=O)[C@H](NC(=O)OC)c3ccccc3)ccc2-c2ccc(-c3cnc([C@@H]4CCCN4C(=O)[C@@H](NC(=O)OC)C(C)C)[nH]3)cc21")
"0.01 to 0.1 nM"
>>> result("COC(=O)N[C@H](C(=O)N1CCC[C@@H]1C(=O)Nc1ccc2c(c1)C(CCCCC(F)(F)F)(CCCCC(F)(F)F)c1cc(NC(=O)[C@@H]3CCCN3C(=O)[C@H](NC(=O)OC)c3ccccc3)ccc1-2)c1ccccc1")
"> 100 nM"
>>> result("CCCCC1(CCCC)c2cc(NC(=O)[C@@H]3C[C@@H](O)CN3C(=O)[C@H](NC(=O)OC)c3ccccc3)ccc2-c2ccc(NC(=O)[C@@H]3C[C@@H](O)CN3C(=O)[C@H](NC(=O)OC)c3ccccc3)cc21")
"0.01 to 0.1 nM"
>>> result("CCCCC1(CCCC)c2cc(NC(=O)[C@@H]3C[C@H](COC)CN3C(=O)[C@H](NC(=O)OC)c3ccccc3)ccc2-c2ccc(-c3cnc([C@@H]4CCCN4C(=O)[C@@H](NC(=O)OC)C(C)C)[nH]3)cc21")
"0.01 to 0.1 nM"
>>> result("CCCCC1(CCCC)c2cc(NC(=O)[C@@H]3CC4(CN3C(=O)[C@H](NC(=O)OC)c3ccccc3)OCCO4)ccc2-c2ccc(NC(=O)[C@@H]3CC4(CN3C(=O)[C@H](NC(=O)OC)c3ccccc3)OCCO4)cc21")
"0.01 to 0.1 nM"
